For each entry below, report its IC50 ratio value.
- Tested on: Monoclonal antibody (mAb)
- Protocol text: Binding affinity against human monoclonal antibody (mAb)-5C2

Below, each entry is followed by its recorded IC50 ratio result.
Compound	Reported endpoint	Data value
C[C@H]1O[C@@H](O[C@H]2[C@@H](O)C[C@H](O[C@H]3CC[C@@]4(C)[C@H](CC[C@@H]5[C@@H]4C[C@@H](O)[C@]4(C)[C@@H](C6=CC(=O)OC6)CC[C@]54O)C3)O[C@@H]2C)C[C@H](O)[C@@H]1O	IC50 ratio	1.3
CC1CC(O[C@H]2CC[C@@]3(C)[C@H](CC[C@@H]4[C@@H]3CC[C@]3(C)[C@@H](C5=CC(=O)OC5)CC[C@]43O)C2)CC(O)C1O (stereo partly drawn)	IC50 ratio	47

Input: What value of IC50 ratio has been reported for the following compound? C[C@H]1O[C@@H](O[C@@H]2CC[C@@]3(O)CC[C@@H]4[C@H](CC[C@]5(C)[C@@H](C6=CC(=O)OC6)CC[C@]45O)[C@@]3(C=O)C2)C[C@H](O)[C@@H]1O
Output: 3000

----------
So I've got a bunch of compounds here, and I need their IC50 ratio values.
- Tested on: Monoclonal antibody (mAb)
- Protocol text: Binding affinity against human monoclonal antibody (mAb)-5C2

> print(dat)
                            smiles.notation  data.value
1  CC(=O)[C@H]1CC[C@H]2[C@@H]3CCC4=CC(=O)CC[C@]4(C)[C@H]3CC[C@]12C          55

Consider the additional compound presented here.
Input: So what does the record say about IC50 ratio for C[C@@H]1O[C@@H](O[C@@H]2C=C3CC[C@@H]4[C@H](CC[C@]5(C)[C@@H](c6ccc(=O)oc6)CC[C@]45O)[C@@]3(C)CC2)[C@H](O)[C@H](O)[C@H]1O ?
Output: 400

----------
- Target desc: Monoclonal antibody (mAb)
- Protocol text: Binding affinity against Monoclonal antibody mAB-1B3 using [3H]digitoxin as radioligand
Would you mind telling me the reported Ki of each entry?
Numbers only, in nM.

Examples from the recorded data:
Compound	Ki, nM
C[C@H]1O[C@@H](O[C@H]2[C@@H](O)C[C@H](O[C@H]3[C@@H](O)C[C@H](O[C@H]4CC[C@@]5(C)[C@H](CC[C@@H]6[C@@H]5C[C@@H](O)[C@]5(C)[C@@H](C7=CC(=O)OC7)CC[C@]65O)C4)O[C@@H]3C)O[C@@H]2C)C[C@H](O)[C@@H]1O [DIGOXIN]	0.8
C[C@]12CC[C@H](O)C[C@H]1CC[C@@H]1[C@@H]2CC[C@]2(C)[C@@H](C3=CC(=O)OC3)CC[C@]12O [DIGITOXIGENIN]	880
C[C@H]1O[C@@H](O[C@H]2[C@@H](O)C[C@H](O[C@H]3[C@@H](O)C[C@H](O[C@H]4CC[C@@]5(C)[C@H](CC[C@@H]6[C@@H]5CC[C@]5(C)[C@@H](C7=CC(=O)OC7)CC[C@]65O)C4)O[C@@H]3C)O[C@@H]2C)C[C@H](O)[C@@H]1O [DIGITOXIN]	0.2

Now for a further compound.
Input: Look up Ki for this compound: C[C@]12CC[C@H](O)C[C@H]1CC[C@@H]1[C@@H]2C[C@@H](O)[C@]2(C)[C@@H](C3=CC(=O)OC3)CC[C@]12O [DIGOXIGENIN]
Output: 1700

----------
- Tested on: Monoclonal antibody (mAb)
- Protocol text: Binding affinity against human monoclonal antibody (mAb)-7F2
Field 'label' (enum: Yes / No). Set to Yes when IC50 ratio is strictly under 1000; else No.

Compound	Target desc	Assigned class
C[C@]12CCC(=O)C=C1CC[C@@H]1[C@@H]2[C@@H](O)C[C@@]2(C)[C@H]1CC[C@]2(O)C(=O)CO	Monoclonal antibody (mAb)	No
C[C@H]1O[C@@H](O[C@H]2CC[C@@]3(C)[C@H](CC[C@@H]4[C@@H]3C[C@@H](O)[C@]3(C)[C@@H](C5=CC(=O)OC5)CC[C@]43O)C2)C[C@H](O)[C@@H]1O	Monoclonal antibody (mAb)	Yes
C[C@H]1O[C@@H](O[C@H]2[C@@H](O)C[C@H](O[C@H]3[C@@H](O)C[C@H](O[C@H]4CC[C@@]5(C)[C@H](CC[C@@H]6[C@@H]5CC[C@]5(C)[C@H](C7COC(=O)C7)CC[C@]65O)C4)O[C@@H]3C)O[C@@H]2C)C[C@H](O)[C@@H]1O (some centres undefined)	Monoclonal antibody (mAb)	No
C[C@H]1O[C@@H](O[C@H]2[C@@H](O)C[C@H](O[C@H]3[C@@H](O)C[C@H](O[C@H]4CC[C@@]5(C)[C@H](CC[C@@H]6[C@@H]5CC[C@]5(C)[C@@H](C7=CC(=O)OC7)CC[C@]65O)C4)O[C@@H]3C)O[C@@H]2C)C[C@H](O)[C@@H]1O	Monoclonal antibody (mAb)	Yes

Input: Bench note: check whether CC(=O)[C@H]1CC[C@H]2[C@@H]3CCC4=CC(=O)CC[C@]4(C)[C@H]3CC[C@]12C shows IC50 ratio below 1000
Output: Yes

Input: Then what about the compound C[C@H]1O[C@@H](O[C@H]2[C@@H](O)C[C@H](O[C@H]3CC[C@@]4(C)[C@H](CC[C@@H]5[C@@H]4C[C@@H](O)[C@]4(C)[C@@H](C6=CC(=O)OC6)CC[C@]54O)C3)O[C@@H]2C)C[C@H](O)[C@@H]1O ?
Output: Yes

Input: Try C[C@]12CC[C@H](O)C[C@H]1CC[C@@H]1[C@@H]2CC[C@]2(C)[C@@H](C3=CC(=O)OC3)CC[C@]12O next.
Output: Yes

Input: Then this compound: CC(=O)O[C@H]1[C@H]2O[C@]23[C@@H]2CC[C@@H]4C[C@@H](O)CC[C@]4(C)[C@H]2CC[C@]3(C)[C@H]1c1ccc(=O)oc1
Output: No

Input: // next record C[C@H]1O[C@@H](O[C@@H]2CC[C@@]3(O)CC[C@@H]4[C@H](CC[C@]5(C)[C@@H](C6=CC(=O)OC6)CC[C@]45O)[C@@]3(C=O)C2)C[C@H](O)[C@@H]1O
Output: No

----------
- System: Monoclonal antibody (mAb)
- Protocol text: Binding affinity against murine monoclonal antibody (mAb)-40-50
Task for the reader: assign each of the following compounds its reported Relative Ki.
One number for each entry.

Examples with their reported Relative Ki follow.
Smiles notation	Data value
C[C@]12CC[C@H]3[C@@H](CC[C@]4(O)C[C@@H](O)CC[C@]34C=O)[C@@]1(O)CC[C@@H]2C1=CC(=O)OC1	4
C[C@H]1O[C@@H](O[C@H]2[C@@H](O)C[C@H](O[C@H]3[C@@H](O)C[C@H](O[C@H]4CC[C@@]5(C)[C@H](CC[C@@H]6[C@@H]5CC[C@]5(C)[C@@H](C7=CC(=O)OC7)[C@@H](O)C[C@]65O)C4)O[C@@H]3C)O[C@@H]2C)C[C@H](O)[C@@H]1O	16
C[C@H]1O[C@@H](O[C@H]2[C@@H](O)C[C@H](O[C@H]3[C@@H](O)C[C@H](O[C@H]4CC[C@@]5(C)[C@H](CC[C@@H]6[C@@H]5CC[C@]5(C)[C@@H](C7=CC(=O)OC7)CC[C@]65O)C4)O[C@@H]3C)O[C@@H]2C)C[C@H](O)[C@@H]1O	1

// next entry
Input: So what does the record say about Relative Ki for C[C@H]1O[C@@H](O[C@H]2[C@@H](O)C[C@H](O[C@H]3[C@@H](O)C[C@H](O[C@H]4CC[C@@]5(C)[C@H](CC[C@@H]6[C@@H]5CC[C@]5(C)[C@@H](C7=CC(=O)OC7)[C@@H](OC=O)C[C@]65O)C4)O[C@@H]3C)O[C@@H]2C)C[C@H](O)[C@@H]1O ?
Output: 35

----------
- Test system: Monoclonal antibody (mAb)
- Protocol text: Binding affinity against human monoclonal antibody (mAb)-1B3
Reported endpoint: IC50 ratio

Before answering, review these 2 worked examples.
Compound	IC50 ratio
C[C@]12C=CC(=O)C=C1CC[C@@H]1[C@@H]2[C@@H](O)C[C@@]2(C)[C@H]1CC[C@]2(O)C(=O)COC(=O)CCC(=O)O	160000
CC(=O)[C@H]1CC[C@H]2[C@@H]3CCC4=CC(=O)CC[C@]4(C)[C@H]3CC[C@]12C [PROGESTERONE]	36000

Each compound below has a recorded value; state its IC50 ratio.
1. C[C@]12CC[C@H](O)C[C@H]1CC[C@@H]1[C@@H]2CC[C@]2(C)[C@@H](C3=CC(=O)OC3)[C@@H](O)C[C@]12O
2. C[C@H]1O[C@@H](O[C@H]2[C@@H](O)C[C@H](O[C@H]3CC[C@@]4(C)[C@H](CC[C@@H]5[C@@H]4CC[C@]4(C)[C@@H](C6=CC(=O)OC6)CC[C@]54O)C3)O[C@@H]2C)C[C@H](O)[C@@H]1O
3. C[C@]12CC[C@H](O)C[C@H]1CC[C@@H]1[C@@H]2CC[C@]2(C)[C@@H](c3ccc(=O)oc3)CC[C@]12O
4. C[C@H]1O[C@@H](O[C@H]2[C@@H](O)C[C@H](O[C@H]3CC[C@@]4(C)[C@H](CC[C@@H]5[C@@H]4C[C@@H](O)[C@]4(C)[C@@H](C6=CC(=O)OC6)CC[C@]54O)C3)O[C@@H]2C)C[C@H](O)[C@@H]1O
5. CO[C@H]1[C@H](O)[C@H](O[C@H]2CC[C@@]3(C)[C@H](CC[C@@H]4[C@@H]3CC[C@]3(C)[C@@H](C5=CC(=O)OC5)CC[C@]43O)C2)O[C@@H](C)[C@@H]1O
6. C[C@]12CC[C@H](O)C[C@H]1CC[C@@H]1[C@@H]2CC[C@]2(C)[C@@H](C3=CC(=O)OC3)CC[C@]12O [DIGITOXIGENIN]

Output:
4700
4.9
6700
1.6
69
1800

Provide each entry's IC50 ratio from the list below.
1. CC(=O)O[C@H]1C[C@H](O[C@H]2[C@@H](O)C[C@H](O[C@H]3[C@@H](O)C[C@H](O[C@H]4CC[C@@]5(C)[C@H](CC[C@@H]6[C@@H]5C[C@@H](O)[C@]5(C)[C@@H](C7=CC(=O)OC7)CC[C@]65O)C4)O[C@@H]3C)O[C@@H]2C)O[C@H](C)[C@H]1O[C@@H]1O[C@H](CO)[C@@H](O)[C@H](O)[C@H]1O
2. C[C@@H]1O[C@H](O[C@H]2CC[C@@]3(C)[C@H](CC[C@@H]4[C@@H]3CC[C@]3(C)[C@@H](C5=CC(=O)OC5)CC[C@]43O)C2)[C@@H](O)[C@@H](O)[C@@H]1O

Output:
[1.6, 40]
